test protocol: activity coefficient (dimensionless); of the first substance listed, at infinite dilution; xn = mol fraction of the nth substance listed
recorded conditions: 343 K; 87.4 kPa; Liquid; Chromatography; x1 = 0
measured parameter: activity coefficient

molecule	reported
c1ccncc1 [pyridine] + O=S(=O)([N-]S(=O)(=O)C(F)(F)F)C(F)(F)F.O=S(=O)([N-]S(=O)(=O)C(F)(F)F)C(F)(F)F.c1ccc2cc(C[N+]3(CCCCCCCCC[N+]4(Cc5ccc6ccccc6c5)CCCC4)CCCC3)ccc2c1	0.287
CCCC=O [butanal] + O=S(=O)([N-]S(=O)(=O)C(F)(F)F)C(F)(F)F.O=S(=O)([N-]S(=O)(=O)C(F)(F)F)C(F)(F)F.c1ccc2cc(C[N+]3(CCCCCCCCC[N+]4(Cc5ccc6ccccc6c5)CCCC4)CCCC3)ccc2c1	0.491
CCO [ethanol] + O=S(=O)([N-]S(=O)(=O)C(F)(F)F)C(F)(F)F.O=S(=O)([N-]S(=O)(=O)C(F)(F)F)C(F)(F)F.c1ccc2cc(C[N+]3(CCCCCCCCC[N+]4(Cc5ccc6ccccc6c5)CCCC4)CCCC3)ccc2c1	0.891
CC(C)O [propan-2-ol] + O=S(=O)([N-]S(=O)(=O)C(F)(F)F)C(F)(F)F.O=S(=O)([N-]S(=O)(=O)C(F)(F)F)C(F)(F)F.c1ccc2cc(C[N+]3(CCCCCCCCC[N+]4(Cc5ccc6ccccc6c5)CCCC4)CCCC3)ccc2c1	0.992

====

test protocol: activity coefficient (dimensionless); of the first substance listed, at infinite dilution; xn = mol fraction of the nth substance listed
recorded conditions: 323 K; 87.4 kPa; Liquid; Chromatography; x1 = 0
The entries below are paired with their reported activity coefficient.
measured parameter: activity coefficient

compound	measured parameter	reported
CCCCCCC [heptane] + O=S(=O)([N-]S(=O)(=O)C(F)(F)F)C(F)(F)F.O=S(=O)([N-]S(=O)(=O)C(F)(F)F)C(F)(F)F.c1ccc2cc(C[N+]3(CCCCCCCCC[N+]4(Cc5ccc6ccccc6c5)CCCC4)CCCC3)ccc2c1	activity coefficient	5.97
c1ccccc1 [benzene] + O=S(=O)([N-]S(=O)(=O)C(F)(F)F)C(F)(F)F.O=S(=O)([N-]S(=O)(=O)C(F)(F)F)C(F)(F)F.c1ccc2cc(C[N+]3(CCCCCCCCC[N+]4(Cc5ccc6ccccc6c5)CCCC4)CCCC3)ccc2c1	activity coefficient	0.517
CCO [ethanol] + O=S(=O)([N-]S(=O)(=O)C(F)(F)F)C(F)(F)F.O=S(=O)([N-]S(=O)(=O)C(F)(F)F)C(F)(F)F.c1ccc2cc(C[N+]3(CCCCCCCCC[N+]4(Cc5ccc6ccccc6c5)CCCC4)CCCC3)ccc2c1	activity coefficient	1.01
ClCCCl [1,2-dichloroethane] + O=S(=O)([N-]S(=O)(=O)C(F)(F)F)C(F)(F)F.O=S(=O)([N-]S(=O)(=O)C(F)(F)F)C(F)(F)F.c1ccc2cc(C[N+]3(CCCCCCCCC[N+]4(Cc5ccc6ccccc6c5)CCCC4)CCCC3)ccc2c1	activity coefficient	0.569

====

test protocol: activity coefficient (dimensionless); of the first substance listed, at infinite dilution; xn = mol fraction of the nth substance listed
recorded conditions: 313 K; 87.4 kPa; Liquid; Chromatography; x1 = 0
This listing pairs compounds with measured activity coefficient.
measured parameter: activity coefficient

compound	measured parameter	reported
ClCCCl [1,2-dichloroethane] + O=S(=O)([N-]S(=O)(=O)C(F)(F)F)C(F)(F)F.O=S(=O)([N-]S(=O)(=O)C(F)(F)F)C(F)(F)F.c1ccc2cc(C[N+]3(CCCCCCCCC[N+]4(Cc5ccc6ccccc6c5)CCCC4)CCCC3)ccc2c1	activity coefficient	0.568
CCN(CC)CC [triethylamine] + O=S(=O)([N-]S(=O)(=O)C(F)(F)F)C(F)(F)F.O=S(=O)([N-]S(=O)(=O)C(F)(F)F)C(F)(F)F.c1ccc2cc(C[N+]3(CCCCCCCCC[N+]4(Cc5ccc6ccccc6c5)CCCC4)CCCC3)ccc2c1	activity coefficient	0.762
c1ccccc1 [benzene] + O=S(=O)([N-]S(=O)(=O)C(F)(F)F)C(F)(F)F.O=S(=O)([N-]S(=O)(=O)C(F)(F)F)C(F)(F)F.c1ccc2cc(C[N+]3(CCCCCCCCC[N+]4(Cc5ccc6ccccc6c5)CCCC4)CCCC3)ccc2c1	activity coefficient	0.515
O=Cc1ccccc1 [benzaldehyde] + O=S(=O)([N-]S(=O)(=O)C(F)(F)F)C(F)(F)F.O=S(=O)([N-]S(=O)(=O)C(F)(F)F)C(F)(F)F.c1ccc2cc(C[N+]3(CCCCCCCCC[N+]4(Cc5ccc6ccccc6c5)CCCC4)CCCC3)ccc2c1	activity coefficient	0.997
